experiment.description: yeast display, Sf9 membrane polyspecificity reagent, FACS + sequencing; frameworks hold sequencing errors
observed.property: polyreactivity (PSR sort gate)

>>> value_reported("QVQLVESGGGLVQAGGSLRLSCAASGSIFVSYAMGWYRQAPGKERELVAAITRSGGSTYYADSVKGRFTISRDNAKNTVYLQMNSLKPEDTAVYYCAARSYLGAYRRYYWGQGTQVTVSS")
"high polyreactivity"
>>> value_reported("QVQLVESGGGLVQAGGSLRLICAASGSTFYTYAMGWYRQAPGKERELVAAITYSGGTTYYADSVKGRFTISRDSAKNTVYLQMNSLKPEDTAFYYCNTRSYYYSDDYWGQGTQVTVSS")
"low polyreactivity"
>>> value_reported("QVQLVESGGGLVQAGGTLRLSCAASGLISYFYGMGWYRQAPGKERELVAGIDTGSSTNYADSVKGRFTISRDNAKNTVYLQMNSLKPEDTAVYYCAADSVSKYGSDYWGQGTQVTVSS")
"low polyreactivity"
>>> value_reported("QVQLVESGGGLVQAGGSLRLSCAASGFTFWYNAMGWYRQAPGKERELVAAITSAGSTSYADSVKGRFTISRDNAKNTVYLQMNSLKPEDTAVYYCNADLASSFSRANKYDYWGQGTQVTVSS")
"low polyreactivity"
>>> value_reported("QVQLVESGGGLVQAGGSLRLICPASGRTFQYYAMGWYRQAPGKERELVAAIDDSDGDTYYADSVKGRFTISRDYATNTVYLQMISLKPEDTAVYYCAAVDGWTYTGSDYWGQGTQVTVSS")
"low polyreactivity"
>>> value_reported("QVQLVESGGGLVQAGCSLRLSCGASGSIFAYYDMGWYREAPGTEREVVAAITTRDDDTYYADSVKGRFTISRDTAKNPVYLQMNSLKPEDTAVYYCAAAWWDYGNGKYDYWGQGTQVTVSS")
"low polyreactivity"

Exam item: So what's the measured polyreactivity (PSR sort gate) for this one? `QVQLVESGGCLVQAGGSLRLSSAASGSTFQNYAMGWYRQATGKERELVAAISSGGRTYYADSVKGRFTISRDNAKNTVYLQMYSLKPEDTAVYYCAVRYRVYKFQYGYWGQGTQVTVSS`
Marked response: high polyreactivity

Exam item: So what's the measured polyreactivity (PSR sort gate) for this one? `QVKLVESGGGLVQAGGSLRLSCAASGFIFIDNTMGWYRQEPGKERELVAGINTSGASTHYADSVKGRFTISRDYAKNTVYLQMNSLKPEDTAVYYCNRGDLPKADYNDYSYDYDYRGQGTQVTVSS`
Marked response: low polyreactivity

====

experiment.description: yeast display, Sf9 membrane polyspecificity reagent, FACS + sequencing; frameworks hold sequencing errors
observed.property: polyreactivity (PSR sort gate)

Observe how each entry below is paired with its result.
>>> value_reported("QVQLVESGGGLVQAGGSLRLSCAASGSTFYDNTMGSYRQAPGKERELVAAITGTGGNTYYADSVKGRFTISRDNAKNTVYLQMNSLKPEDTAVYYCNRVPVYYYRYGYWGQGTQVTVSS")
"low polyreactivity"
>>> value_reported("QVQLVETGGGLVQAGGSLRLSCAASGSTMAYYTMGWYRQEPGKEREFVASINWGGTTTYYADSVKGRFTISRDNAKNTVYLQMNSLKPEDTAVYYCAALGLRWGRSGYYYEYYYWGQGTQVTVSS")
"high polyreactivity"
>>> value_reported("QVQLVESGGGLVQAGGSLRLSCAASGFIYKFYAMGWYRQEPGKVRELVAAISDSGGSTYYADSVKGRFTISRDNAKNTVYLQMNSLKPEDTAVYYCNADWSWNNYYDFDYWGLGTQVTVSS")
"low polyreactivity"
>>> value_reported("QVQLVESGGGLVQAGGSLRLSCAASGITFVFYAMGWYRQAPGKERELVAAISWSGGITYYADSVKGRFTISRDNAKNTVYLQMNSLKPEDTAVYYCAARISWEKYQAGYDYWGQGTQVTVSS")
"low polyreactivity"
>>> value_reported("QVQLVESGGGLVQAGGSLRLSCAASGSIFDVNTMGSYRQAPGKETELGASITSSGSTYYADSVKGRFTISRDNAKNTVYLQMNSLKPEDTAVYYCAATPIGQHFTLDYWGQGTQVTVSS")
"low polyreactivity"
>>> value_reported("QVQLVESVGGLVQAGGSLRLSCAASGRTFVRYTMGWYRQAPGKERELVAAITWSGGSTYYADSVKGRFTISRDNATNTVYLQMNSLKPEDTAVYDCAARTYFGTQLQRYYWGQGTQVTVSS")
"high polyreactivity"
>>> value_reported("QVQLEESGGGLVQAGGSLRLSCAASGRIFHVNAMGWYRPAPGKERELVAAISTSGGRTYYADSVKGRFTISRDNAKNTVYLQMNSLKPEDTAVYYCAKRWPLYVDPTRMDYWGQGTQVTVSS")
"high polyreactivity"
>>> value_reported("QVQLVESGGGLVQAGGSLRLSSAASGSTFYWYAMGWYRQAPGKERELVASITRSGVRTYYADSVKGRFTISRDNAKNTVYLQMNSLKPEDTAVYYCAAERYYFPRSYRYGYWGQGTQVTVSS")
"low polyreactivity"
>>> value_reported("QVQLVESAGGLVQAGGSLSLSCAASGFTFYRNAMGWYRQAPGQERELVAAISRSGGRTYYADSVKGRFTISRDNAKNTVYLQMNSLKPEDTSVYYCAVYVTRDSGWWLYDYWGQGTQVTVSS")
"high polyreactivity"
>>> value_reported("QDQLVESGGCLVQAGGSLRLSCAASRFTFSPYTMGWYRQAPGKERELVATIRYDGTSTYYADSVKGRFTISRDNAKNTVYLQMNSLKPEDTAVYYCNADPGYYDYDYWGEGTQVTVSS")
"low polyreactivity"

Exam item: So what's the measured polyreactivity (PSR sort gate) for this one? `QVQLVESGGGLVQAGGSLRLSCAATGFTFTGNAMGWYRQAPGKQRELVAAINTGTGGSTYYADSVKGRFTISRDNAKNTVYLQMNSLKPVDTAVYYPIGVGGDYDYWGQGTQVTVSS`
Marked response: low polyreactivity
